ASSAY_INFO: Brain penetration of PARP inhibitors in mice
Assay type: in vivo, male C57 mice
RUN_PARAMETERS: male, C57, mouse, brain and plasma, po, Brain/Plasma, AUC1-4h, single p.o. dose: Pamiparib 10, Talazoparib 3, Olaparib 50, Niraparib 50 mg/kg
PROPERTY_LABEL: Kp
// keep it numeric: no unit symbol after the value

Problem: Reported Kp, compound NC(=O)c1cccc2cn(-c3ccc([C@@H]4CCCNC4)cc3)nc12 [Niraparib, niraparib] : ____
Result: 0.09

Problem: What value of Kp has been recorded for this entry: C[C@]12CCCN1CC1=NNC(=O)c3cc(F)cc4[nH]c2c1c34 [Pamiparib]
Result: 0.18

----------
ASSAY_INFO: PK study in dog
Assay type: in vivo
RUN_PARAMETERS: dog, plasma, intravenous, 1 mg/kg
PROPERTY_LABEL: Vd

Problem: What value of measured Vd is listed for C[C@]12CCCN1CC1=NNC(=O)c3cc(F)cc4[nH]c2c1c34 [Pamiparib] ?
Result: 2.1 L/kg

----------
Test system: NCI-H2286
ASSAY_INFO: Pamiparib and TMZ combination, anti-proliferation
Format: cell-based
RUN_PARAMETERS: Homo sapiens, NCI-H2286, read-out: EC50 of TMZ single agent
PROPERTY_LABEL: pEC50
In plain terms, pEC50 is the concentration in mol/L turned into minus its base-10 logarithm.

Problem: Looking for the measured pEC50 of Cn1nnc2c(C(N)=O)ncn2c1=O [TMZ, Temozolomide] , can you help?
Result: 3.74

Data origin: paper PMC7350150
